This listing pairs compounds with measured relative viability EC50.
tested on: Calu-3; assay: relative viability EC50 (midpoint between 100% and the lowest measured viability); higher = less toxic; conditions: 72 h

Some solved entries appear below for comparison.
N[C@]1(C(=O)O)CC[C@@H](C(=O)O)C1 [cis-ACPD] = > 10 µM
CC(C)c1cc(-c2n[nH]c(=O)n2-c2ccc3c(ccn3C)c2)c(O)cc1O = 0.0478 µM
N[C@@H]1c2cccnc2[C@H](OC(=O)N2CCC(n3c(=O)[nH]c4ncccc43)CC2)CC[C@H]1c1cccc(F)c1F = > 10 µM

# get_value(readout= relative viability EC50, system= Calu-3) for `CCCCCCCCCCCCCCCC[N+](C)(C)CCN(Cc1ccc(OC)cc1)c1ncccn1`
2.04 µM

# get_value(readout= relative viability EC50, system= Calu-3) for `C[C@@H]1[C@H](O)[C@@H](C)/C=C/C=C/C=C/C=C/C=C/C=C/C=C/[C@H](O[C@@H]2O[C@H](C)[C@@H](O)[C@H](N)[C@@H]2O)C[C@@H]2O[C@](O)(C[C@@H](O)C[C@@H](O)[C@H](O)CC[C@@H](O)C[C@@H](O)CC(=O)O[C@H]1C)C[C@H](O)[C@H]2C(=O)O`
> 10 µM

# get_value(readout= relative viability EC50, system= Calu-3) for `O=C(Oc1ccccc1C(=O)O)c1ccccc1O`
> 10 µM

# get_value(readout= relative viability EC50, system= Calu-3) for `CS(=O)(=O)N1CCN(Cc2cc3nc(-c4cccc5[nH]ncc45)nc(N4CCOCC4)c3s2)CC1`
0.438 µM

# get_value(readout= relative viability EC50, system= Calu-3) for `CN(C)CC/C=C1/c2ccccc2Sc2ccc(Cl)cc21`
> 10 µM

# get_value(readout= relative viability EC50, system= Calu-3) for CN1Cc2c(N)cccc2C(c2ccccc2)C1 (centres undefined)
> 10 µM
